tested on: HCC-2998 colon; experiment: NCI-60 one-dose screen, 48 h (100 = growth as untreated, 0 = no growth, -100 = all killed); settings: 10 µM unless noted
Compounds without any hit were thinned out: in the full panel of roughly 83,000, 20% have a hit.
propertyMeasured: growth (%)
Quick note: give the figure in %, leave out the unit.

Below, each entry is followed by its recorded growth result.
COC(=O)[C@@H](C)C[C@H](Cc1ccccc1)NC(=O)c1csc([C@@H](C[C@H](C(C)C)N(C)C(=O)[C@@H](NC(=O)[C@H]2CCCCN2C)C(C)C)OC(C)=O)n1
12.9
c1cc2c(c3c1CCNC3)OCO2
102
CCOc1ccc(/C=C/[N+](=O)[O-])cc1
23.7

growth in this record for CC(C)(C)N1CC1C#N (centres undefined) : 98.8

growth in this record for NC(=S)c1cn(C2OC(CO)C(O)C2O)c2ncnc(N)c12 (centres undefined) : -44.8

growth in this record for COc1cc(/C=C/[N+](=O)[O-])c([N+](=O)[O-])cc1OC : 86.3
